method-summary: Water solubility of the two crystal forms
Type: physicochemical
study-conditions: water, pH 7.51, water, thermodynamic from solid
reported-endpoint: solubility (µg/mL)
Numbers only here, please. The scale is µg/mL.

// solubility value for C=Cc1cc(O)cc2nc(-c3ccc(O)c(F)c3)oc12 [Monohydrate] : 2.21

====

method-summary: Water solubility of the two crystal forms
Type: physicochemical
study-conditions: water, pH 7.7, water, thermodynamic from solid; pH 7.70
reported-endpoint: solubility (µg/mL)
Number only, in µg/mL; omit the unit.

GET /value?item= C=Cc1cc(O)cc2nc(-c3ccc(O)c(F)c3)oc12 [Anhydrate] &field=solubility returns 12.8

====

method-summary: Water solubility of the two crystal forms
Format: physicochemical
study-conditions: water, pH 7.11, water, thermodynamic from solid
reported-endpoint: solubility (µg/mL)
Output spec: scalar in µg/mL, unitless text.

// solubility value for C=Cc1cc(O)cc2nc(-c3ccc(O)c(F)c3)oc12 [Monohydrate] : 2.34

====

method-summary: Water solubility of the two crystal forms
Type: physicochemical
study-conditions: water, pH 7.29, water, thermodynamic from solid
reported-endpoint: solubility (µg/mL)
Your answer should be a plain number; it is taken to be in µg/mL.

solubility in this record for C=Cc1cc(O)cc2nc(-c3ccc(O)c(F)c3)oc12 [Anhydrate] : 10
